These data points were gathered from ChEMBL document CHEMBL3994623.

test system: Staphylococcus aureus; test: Antistaphylococcal activity against aminoglycosides/tetracycline-resistant Staphylococcus aureus NRS-1 after 18 hrs by two fold serial dilution method; assay type: functional; conditions: NRS-1, 18 h
Recorded MIC for the following molecules
Quick reminder: number only, in µg/mL, skip the unit.

Supply measured MIC of CCCCNc1c(OC)ccc2c(Cc3ccc(C)cc3)c3[n+](cc12)CCc1cc2c(cc1-3)OCO2.[Br-] in your reply.
1.56

Using known records, supply MIC for CCCCCNc1c(OC)ccc2c(Cc3ccc(C(F)(F)F)cc3)c3[n+](cc12)CCc1cc2c(cc1-3)OCO2.[Br-]
1.56

Tell us which MIC value is on record for CCCCCNc1c(OC)ccc2c(Cc3ccc(F)cc3)c3[n+](cc12)CCc1cc2c(cc1-3)OCO2.[Br-]
3.13

Item CCCCCCNc1c(OC)ccc2c(Cc3ccc(F)cc3)c3[n+](cc12)CCc1cc2c(cc1-3)OCO2.[Br-] : provide MIC
3.13

Next:
Read off the recorded MIC for CCCCCNc1c(OC)ccc2c(Cc3ccc(C)c(C)c3)c3[n+](cc12)CCc1cc2c(cc1-3)OCO2.[Br-]
3.13

Supply measured MIC of CCCCCNc1c(OC)ccc2c(Cc3cccc(C)c3)c3[n+](cc12)CCc1cc2c(cc1-3)OCO2.[Br-] in your reply.
3.13

Identify the reported MIC for the following entry. CCCCCCNc1c(OC)ccc2c(Cc3ccc(OC)cc3)c3[n+](cc12)CCc1cc2c(cc1-3)OCO2.[Br-]
6.25

Provide MIC value for the following molecule: CCCCCNc1c(OC)ccc2c(Cc3ccc(C)cc3)c3[n+](cc12)CCc1cc2c(cc1-3)OCO2.[Br-]
1.56

Identify measured MIC associated with CCCCCCNc1c(OC)ccc2c(Cc3ccc(C)cc3)c3[n+](cc12)CCc1cc2c(cc1-3)OCO2.[Br-]
1.56

---

system: Staphylococcus aureus; experiment: Antistaphylococcal activity against aminoglycosides/tetracycline-resistant Staphylococcus aureus NRS-1 after 18 hrs by two fold serial dilution method; type: functional; conditions: NRS-1, 18 h
MEASURE_NAME: MIC (µg/mL)
Field: numeric (µg/mL). Do not append units.

Supply reported MIC belonging to this molecule: CCCCCCNc1c(OC)ccc2c(Cc3ccccc3)c3[n+](cc12)CCc1cc2c(cc1-3)OCO2.[Br-]
1.56

Item CCCCCNc1c(OC)ccc2c(Cc3ccccc3C)c3[n+](cc12)CCc1cc2c(cc1-3)OCO2.[Br-] : provide MIC
3.13

State, in one line, measured MIC of CCCCCNc1c(OC)ccc2c(Cc3ccc(O)cc3)c3[n+](cc12)CCc1cc2c(cc1-3)OCO2.[Br-]
6.25

Dear colleague, please send me the reported MIC for CCCCCNc1c(OC)ccc2c(Cc3ccccc3)c3[n+](cc12)CCc1cc2c(cc1-3)OCO2.[Br-] when you can.
3.13

Please list MIC recorded for the molecule CN[C@H](CC(C)C)C(=O)N[C@H]1C(=O)N[C@@H](CC(N)=O)C(=O)N[C@H]2C(=O)N[C@H]3C(=O)N[C@H](C(=O)N[C@H](C(=O)O)c4cc(O)cc(O)c4-c4cc3ccc4O)[C@H](O)c3ccc(c(Cl)c3)Oc3cc2cc(c3O[C@@H]2O[C@H](CO)[C@@H](O)[C@H](O)[C@H]2O[C@H]2C[C@](C)(N)[C@H](O)[C@H](C)O2)Oc2ccc(cc2Cl)[C@H]1O
1.56

Provide only the value of recorded MIC for CCCCNc1c(OC)ccc2c(Cc3ccc(F)cc3)c3[n+](cc12)CCc1cc2c(cc1-3)OCO2.[Br-]
6.25

***
Query MIC for CCCCCNc1c(OC)ccc2c(Cc3ccc(OC)cc3)c3[n+](cc12)CCc1cc2c(cc1-3)OCO2.[Br-]
1.56

Please report MIC for the following molecule: CCCCNc1c(OC)ccc2c(Cc3ccc(OC)cc3)c3[n+](cc12)CCc1cc2c(cc1-3)OCO2.[Br-]
6.25
